Source of measurements: ChEMBL document CHEMBL6092222

# test description: physchem
# condition description: aqueous buffer, pH 4
# Description: Solubility of compound in aqueous buffer at pH 4 at 25 degreeC by reversed phase-HPLC analysis
// reported solubility per item

Example entries begin here.
{"smiles representation": "[2H]C([2H])([2H])NC(=O)c1cn(COP(=O)([O-])[O-])/c(=N/C(=O)C2CC2)cc1Nc1cccc(-c2nnn(C)n2)c1OC.[Na+].[Na+]", "solubility": "1 µg/mL"}
{"smiles representation": "[2H]C([2H])([2H])NC(=O)c1cn(COC(=O)CC(C)(C)c2c(C)cc(C)cc2OP(=O)(O)O)/c(=N/C(=O)C2CC2)cc1Nc1cccc(-c2nnn(C)n2)c1OC", "solubility": "44 µg/mL"}

In the following, a different compound is considered.
Recorded result, NC(CO)(CO)CO.[2H]C([2H])([2H])NC(=O)c1cn(COP(=O)(O)O)/c(=N/C(=O)C2CC2)cc1Nc1cccc(-c2nnn(C)n2)c1OC , solubility: 2 µg/mL

----------
# test description: Apparent permeability across apical to basal side in human Caco-2 cells
# Type: ADME, cell-based
property name: Papp A→B
Put down the number, then write its unit next to it.

Recorded result, [2H]C([2H])([2H])NC(=O)c1cnc(NC(=O)C2CC2)cc1Nc1cccc(-c2nnn(C)n2)c1OC , Papp A→B: 6.7 ×10⁻⁶ cm/s

----------
// reported log10(half-life) per item
# test description: Chemical stability of compound in acetate buffer at pH 4 at 37 degreeC assessed as half life measured for 24 hrs by reversed phase-HPLC analysis
# Format: physicochemical
# log10 transformed; quantity=half-life; unit=days

{"smiles representation": "[2H]C([2H])([2H])NC(=O)c1cn(COC(=O)CC(C)(C)c2c(C)cc(C)cc2OP(=O)(O)O)/c(=N/C(=O)C2CC2)cc1Nc1cccc(-c2nnn(C)n2)c1OC", "log10(half-life)": 1.06}
{"smiles representation": "CNCC(=O)OCc1cccnc1N(C)C(=O)OCn1cc(C(=O)NC)c(Nc2cccc(-c3nnn(C)n3)c2OC)c/c1=N\\C(=O)C1CC1.Cl", "log10(half-life)": 0.48}
{"smiles representation": "[2H]C([2H])([2H])NC(=O)c1cn(COP(=O)([O-])[O-])/c(=N/C(=O)C2CC2)cc1Nc1cccc(-c2nnn(C)n2)c1OC.[Na+].[Na+]", "log10(half-life)": 1.20}
{"smiles representation": "[2H]C([2H])([2H])NC(=O)c1cn(COC(=O)c2ccc(COP(=O)(O)O)cc2)/c(=N/C(=O)C2CC2)cc1Nc1cccc(-c2nnn(C)n2)c1OC", "log10(half-life)": 1.14}
{"smiles representation": "[2H]C([2H])([2H])NC(=O)c1cn(COP(=O)(O)O)/c(=N/C(=O)C2CC2)cc1Nc1cccc(-c2nnn(C)n2)c1OC", "log10(half-life)": 1.08}

Recorded result, [2H]C([2H])([2H])N(COP(=O)([O-])[O-])C(=O)c1cnc(NC(=O)C2CC2)cc1Nc1cccc(-c2nnn(C)n2)c1OC.[Na+].[Na+] , log10(half-life): -1.53

Recorded result, [2H]C([2H])([2H])NC(=O)c1cn(COC(=O)c2ccc(OP(=O)(O)O)c(OC)c2)/c(=N/C(=O)C2CC2)cc1Nc1cccc(-c2nnn(C)n2)c1OC , log10(half-life): 0.95

----------
# test description: Oral bioavailability in Pentagastrine-pretreated Sprague-Dawley rat at 10 mg/kg measured for 24 hrs by UPLC-MS/MS analysis
# Type: ADME, organism-based
# condition description: in vivo
property name: bioavailability (%)
Response body: numeric value in %, unit text excluded.

Recorded result, [2H]C([2H])([2H])NC(=O)c1cnc(NC(=O)C2CC2)cc1Nc1cccc(-c2nnn(C)n2)c1OC , bioavailability: 91

----------
// reported solubility per item
# test description: physchem
# condition description: aqueous buffer, pH 4
Response body: numeric value in µg/mL, unit text excluded.

Recorded result, [2H]C([2H])([2H])NC(=O)c1cn(COP(=O)(O)O)/c(=N/C(=O)C2CC2)cc1Nc1cccc(-c2nnn(C)n2)c1OC , solubility: 27

----------
# test description: physchem
# condition description: aqueous buffer, pH 6.5
# Description: Solubility of compound in aqueous buffer at pH 6.5 at 25 degreeC by reversed phase-HPLC analysis
property name: solubility (µg/mL)
Response body: numeric value in µg/mL, unit text excluded.

Recorded result, [2H]C([2H])([2H])NC(=O)c1cn(COP(=O)([O-])[O-])/c(=N/C(=O)C2CC2)cc1Nc1cccc(-c2nnn(C)n2)c1OC.[Na+].[Na+] , solubility: 1470

----------
// reported Cmax per item
# test description: Prodrug conversion in Famotidine-pretreated Sprague-Dawley rat assessed as Cmax of 6-(cyclopropanecarboxamido)-4-((2-methoxy-3-(2-methyl-2H-tetrazol-5-yl)phenyl)amino)-N-(methyl-d3)nicotinamide metabolite at 10 mg/kg, po measured for 24 hrs by UPLC-MS/MS analysis
# Format: ADME, organism-based
# condition description: in vivo
Response body: numeric value in µM, unit text excluded.

{"smiles representation": "[2H]C([2H])([2H])NC(=O)c1cn(COP(=O)(O)O)/c(=N/C(=O)C2CC2)cc1Nc1cccc(-c2nnn(C)n2)c1OC", "quantity unit": "µM", "reported result": 12.4}

Recorded result, [2H]C([2H])([2H])NC(=O)c1cn(COP(=O)([O-])[O-])/c(=N/C(=O)C2CC2)cc1Nc1cccc(-c2nnn(C)n2)c1OC.[Na+].[Na+] , Cmax: 8.1

----------
# test description: Oral bioavailability in Sprague-Dawley rat at 10 mg/kg measured for 24 hrs by UPLC-MS/MS analysis
# Assay type: ADME, organism-based
# condition description: in vivo
property name: bioavailability (%)
Response body: numeric value in %, unit text excluded.

Recorded result, [2H]C([2H])([2H])NC(=O)c1cnc(NC(=O)C2CC2)cc1Nc1cccc(-c2nnn(C)n2)c1OC , bioavailability: 36

----------
# test description: Oral bioavailability in rat
# Type: ADME, organism-based
# condition description: in vivo
property name: bioavailability (%)
Response body: numeric value in %, unit text excluded.

Recorded result, [2H]C([2H])([2H])NC(=O)c1cnc(NC(=O)C2CC2)cc1Nc1cccc(-c2nnn(C)n2)c1OC , bioavailability: 50

----------
# test description: Solubility of compound in FeSSIF at pH 5 by reversed-phase UPLC analysis
# Format: physicochemical
// reported solubility per item

{"smiles representation": "[2H]C([2H])([2H])NC(=O)c1cn(COP(=O)(O)O)/c(=N/C(=O)C2CC2)cc1Nc1cccc(-c2nnn(C)n2)c1OC", "solubility": "100 µg/mL"}

In the following, a different molecule is considered.
Recorded result, [2H]C([2H])([2H])NC(=O)c1cnc(NC(=O)C2CC2)cc1Nc1cccc(-c2nnn(C)n2)c1OC , solubility: 57 µg/mL

----------
# test description: Prodrug conversion in Sprague-Dawley rat assessed as Cmax of 6-(cyclopropanecarboxamido)-4-((2-methoxy-3-(2-methyl-2H-tetrazol-5-yl)phenyl)amino)-N-(methyl-d3)nicotinamide metabolite at 25 mg/kg, po measured for 24 hrs by UPLC-MS/MS analysis
# Format: ADME, organism-based
# condition description: in vivo
property name: Cmax
Put down the number, then write its unit next to it.

Recorded result, [2H]C([2H])([2H])NC(=O)c1cn(COP(=O)(O)O)/c(=N/C(=O)C2CC2)cc1Nc1cccc(-c2nnn(C)n2)c1OC , Cmax: 13 µM

----------
# test description: Cmax in Famotidine-pretreated Sprague-Dawley rat at 10 mg/kg, po measured for 24 hrs by UPLC-MS/MS analysis
# Assay type: ADME, organism-based
# condition description: in vivo
// reported Cmax per item
Response body: numeric value in nM, unit text excluded.

{"smiles representation": "Cl.[2H]C([2H])([2H])NC(=O)c1cnc(NC(=O)C2CC2)cc1Nc1cccc(-c2nnn(C)n2)c1OC", "property name": "Cmax", "quantity unit": "nM", "reported result": 800}

In the following, a different compound is considered.
Recorded result, [2H]C([2H])([2H])NC(=O)c1cnc(NC(=O)C2CC2)cc1Nc1cccc(-c2nnn(C)n2)c1OC , Cmax: 770

----------
# test description: Solubility of compound at pH 3 by reversed-phase UPLC analysis
# Type: physicochemical
# condition description: buffer
property name: solubility

Recorded result, [2H]C([2H])([2H])NC(=O)c1cnc(NC(=O)C2CC2)cc1Nc1cccc(-c2nnn(C)n2)c1OC , solubility: 17 µg/mL

----------
# test description: Oral bioavailability in mouse at 50 mg/kg administered as suspension
# Assay type: ADME, organism-based
# condition description: in vivo
property name: bioavailability
Put down the number, then write its unit next to it.

Recorded result, [2H]C([2H])([2H])NC(=O)c1cnc(NC(=O)C2CC2)cc1Nc1cccc(-c2nnn(C)n2)c1OC , bioavailability: 63%

----------
// reported solubility per item
# test description: physchem
# condition description: aqueous buffer, pH 4
Response body: numeric value in µg/mL, unit text excluded.

Example entries begin here.
{"smiles representation": "[2H]C([2H])([2H])NC(=O)c1cn(COC(=O)c2ccc(OP(=O)(O)O)c(OC)c2)/c(=N/C(=O)C2CC2)cc1Nc1cccc(-c2nnn(C)n2)c1OC", "solubility / µg/mL": 58}
{"smiles representation": "CNCC(=O)OCc1cccnc1N(C)C(=O)OCn1cc(C(=O)NC)c(Nc2cccc(-c3nnn(C)n3)c2OC)c/c1=N\\C(=O)C1CC1.Cl", "solubility / µg/mL": 580}
{"smiles representation": "NCCCC[C@H](N)C(=O)O.[2H]C([2H])([2H])NC(=O)c1cn(COP(=O)(O)O)/c(=N/C(=O)C2CC2)cc1Nc1cccc(-c2nnn(C)n2)c1OC", "solubility / µg/mL": 9}

In the following, a different compound is considered.
Recorded result, [2H]C([2H])([2H])NC(=O)c1cnc(NC(=O)C2CC2)cc1Nc1cccc(-c2nnn(C)n2)c1OC , solubility: 5
